# Assay method text: Stability of markers in solution at room temperature, followed by peak retention time on chromatography
# Type: physicochemical
# Experimental context: solution at room temperature, 0.1 mg/ml; 3rd of four analyses at 8 hour intervals
Measurement label: Peak Retention Time (min)
A number alone suffices; assume min.

Given the entry TV-66: 66-mer sequence-defined polypeptide molecular weight marker of Ala, Glu, Tyr, Lys, molecular weight = 7040 daltons (peptide) AKKYAKKEKAYAKAKKAEAKAAKKAKAEAKKYAKAAKAEKKEYAAAEAKYKAEAAKAAAKEAAYEA , report its measured Peak Retention Time.
27.433
